system under test: BuChE (Equus caballus)
Construct: BuChE (10 U/mg from horse serum)
test: Surface plasmon resonance (SPR) assay, BuChE
stated conditions: Biacore T100, steady-state affinity fitting; read-out: Kd (equilibrium dissociation constant) for BuChE
Procedure: The experiments were carried out using Biacore T100 with the Sensor Chip CM5. The chip surface was activated following standard NHS + EDC with Biacore PBS-EP (0.02 M Phosphate buffer with 2.7 mM KCl, 0.137 M NaCl and 0.05% P20) buffer used as the running buffer. 7000 RU of untagged AChE or 6600 RU of untagged BuChE was immobilized per flow cell and 100 μg/mL AChE or 20 μg/mL BuChE was injected. The cholinesterase protein is coupled to the sensor chip CM5 by amine coupling. […]
quantity kind: Kd (µM)
Give a bare numeral; the unit µM is implied.

Query: Find the recorded Kd belonging to COc1cc2ccnc3c2c(c1OC)NC=C3 [aaptamine] and report it.
Result: 10.7

----------
system under test: AChE (Electrophorus electricus)
Sequence (O42275 24-633): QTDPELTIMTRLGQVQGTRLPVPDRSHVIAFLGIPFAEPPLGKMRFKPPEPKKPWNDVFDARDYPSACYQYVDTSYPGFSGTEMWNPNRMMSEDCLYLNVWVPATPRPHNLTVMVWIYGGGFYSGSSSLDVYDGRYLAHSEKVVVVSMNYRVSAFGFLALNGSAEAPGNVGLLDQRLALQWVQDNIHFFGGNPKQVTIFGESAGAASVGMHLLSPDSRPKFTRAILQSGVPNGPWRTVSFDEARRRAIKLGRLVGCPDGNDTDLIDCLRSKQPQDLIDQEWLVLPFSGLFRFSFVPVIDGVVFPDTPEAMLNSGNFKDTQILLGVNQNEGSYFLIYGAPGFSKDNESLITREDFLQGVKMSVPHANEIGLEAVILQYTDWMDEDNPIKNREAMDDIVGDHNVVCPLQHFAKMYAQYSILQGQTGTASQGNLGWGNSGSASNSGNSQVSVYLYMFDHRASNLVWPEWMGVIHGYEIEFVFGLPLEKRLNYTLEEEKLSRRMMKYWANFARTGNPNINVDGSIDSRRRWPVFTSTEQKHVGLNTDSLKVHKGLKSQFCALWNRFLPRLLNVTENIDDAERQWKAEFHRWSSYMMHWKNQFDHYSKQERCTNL
quantity kind: Kd (µM)
Write it as a number; the unit µM goes unstated.

Query: Given COc1cc2ccnc3c2c(c1OC)NC=C3 , state its recorded Kd.
Result: 87.6

----------
system under test: AChE (Electrophorus electricus)
quantity kind: Ki (µM)
Response body: numeric value in µM, unit text excluded.

Query: Return reported Ki; argument: COc1cc2ccnc3c2c(c1OC)NC=C3
Result: 6.96

----------
system under test: BuChE (Equus caballus, UniProt P81908)
Construct: BuChE (10 U/mg from horse serum)
Sequence (P81908 whole entry): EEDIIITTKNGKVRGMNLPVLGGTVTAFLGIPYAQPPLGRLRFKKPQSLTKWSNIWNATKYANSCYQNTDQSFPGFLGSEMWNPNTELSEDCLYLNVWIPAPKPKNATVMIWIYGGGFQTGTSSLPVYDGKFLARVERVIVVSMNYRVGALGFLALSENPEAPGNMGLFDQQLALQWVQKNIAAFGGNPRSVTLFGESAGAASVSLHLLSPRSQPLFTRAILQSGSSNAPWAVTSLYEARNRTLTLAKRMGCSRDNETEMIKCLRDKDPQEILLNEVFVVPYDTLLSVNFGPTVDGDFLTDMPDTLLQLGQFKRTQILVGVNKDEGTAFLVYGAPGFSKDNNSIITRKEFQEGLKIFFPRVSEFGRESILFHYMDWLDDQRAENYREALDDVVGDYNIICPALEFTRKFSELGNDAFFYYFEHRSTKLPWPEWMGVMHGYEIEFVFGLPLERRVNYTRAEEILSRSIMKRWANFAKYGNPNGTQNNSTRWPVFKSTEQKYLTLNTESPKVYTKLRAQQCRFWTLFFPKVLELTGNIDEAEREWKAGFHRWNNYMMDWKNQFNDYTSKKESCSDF
test: Kinetic study of BuChE inhibition (Lineweaver-Burk, secondary plot)
stated conditions: secondary plot of slope vs inhibitor concentration, substrate BTChI; read-out: steady-state inhibition constant Ki against BuChE
quantity kind: Ki (µM)
Unit µM implied. Number only.

Query: Recorded Ki for COc1cc2ccnc3c2c(c1OC)NC=C3 [aaptamine] , please?
Result: 6.35

Numbers sourced from paper PMC9380430.
